Origin of values: patent US20240247080A1

biological target: human GLP-1 receptor (human, UniProt P43220 24-463); test: cell-based or functional assay
Starred links: 1 amine or outer side, 2 acyl side, 3 side chain; linkers in the order of their positions; H or OH if unused. Non-standard residues stand in square brackets, D forms with d. Groups on a side chain read outwards from the residue. No end group written: not given here. *: point of attachment. C20 diacid = O=C(O)CCCCCCCCCCCCCCCCCCC(=O)*; C18 diacid = O=C(O)CCCCCCCCCCCCCCCCC(=O)*; γGlu = O=C(O)[C@H](CCC(=O)[*:2])N[*:1]; AEEA = NCCOCCOCC(=O)O; Aib = CC(C)(N)C(=O)O
Endpoint: EC50 hGLP1R 0.5% hP (CreLuc) (nM)
Hi! Could you send only the number? It should be in nM, unit omitted.

Y[Aib]EGTFTSDYSI[Aib]LEKQAQ[Aib]AFVEWLIKGGPEEGASLRHYYNWLTRQRY-NH2 (not fully specified (residue 28); also: TFA salt) [Compound 285]
0.34

Exam item: May I ask what EC50 hGLP1R 0.5% hP (CreLuc) has been recorded for Y[Aib]EGTFTSDYSI[Aib]LEKQAQ[Aib]AFVEWLIK([AEEA-AEEA-γGlu-γGlu-γGlu-γGlu-C20 diacid])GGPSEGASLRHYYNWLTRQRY-NH2 (also: TFA salt) [Compound 287] ?
Marked response: 0.27

Exam item: What do we get for YXEGTFTSDYSIXLEKQAQXAFVEWLIKGGPSSGASLRHYYNWLTRQRY (Aib at 2, 13, 20; K28 side chain acylated with C18DA-gGlu-gGlu-gGlu-gGlu-gGlu-AHX; C-terminal amide (NH2)) [Compound 260] ?
Marked response: 0.13

Exam item: What do we get for Y[Aib]EGTFTSDYSI[Aib]LEKQAQ[Aib]AFVEWLIK([Glu-Glu-Glu-Glu-Glu-Glu-C18 diacid])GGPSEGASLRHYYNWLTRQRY-NH2 (also: TFA salt) [Compound 302] ?
Marked response: 0.15
